Experiment: soluble on expression in E. coli; label from the status in PepcDB or PDB records

# BIOSEQUENCE, soluble on expression in E. coli
measured = [
    ("MSLKKKVVIVGGGFTGLNTARILSNRKDVEVTLIDRKNYHLFQPLLYQVAMAALGEGDIATPLRNMLAGYDNVTVFKGNVCNVDLEQKKVKTDFGDIEYDYLVLACGAQHHYFGKNDWEEHAPGLKNLAQASEIRRRVMEAYEAAERTNDMKERKKQLTFVIVGGGPTGVELAGSIGEMSRYTLSKFYRHIDPKLTRIFIVEAAERILGTFSPELSSKATRELEKLGVQVWTSSMVSDVDADGVQIGRERIEAATVLWAAGVKASEIGQNMGVQTDRSGRIMVEADLSLPGHPEVFVGGDQACYTLENGSTLPGMAPVAMQEGKAIGRMILDDLKGKPRKPFKYRDKGQMATIGRNRAIVEIGNLKFDGEGHHHHHH", "soluble"),
    ("AIARALESTPLTGDVDWKSPLGSRSTWARLREQTRHCTFYRTYCFKASLKQLEEVTEEHVTYVGDCAALPPSPFLCVLLAYDCCSPSREEVAAHLDCSKNVYWRAIVATWIRWKESRAEQVYQLLDPLYRDYRPIKVRQKDNSYHNSYLDVFIDQLLRYRCALVSLEEPFVLDVIPFPHLPPRYELEARGVLPQREYAAPADDDDDDDAVSRPRLQQ", "soluble"),
    ("MLTSRALRIPRKPFVDLDYARHMPSAYVERTKRTVPRKVFGDRFGAPDIKMYYVHPDDYVPSHRRPWEDKQISSHLHRSDKYFSAQLSNQYFNLRRPKSERMADTEWTFFPGDLVQVMVGKDKGRQGLVLTTSRDSSDVIVDGLHTKLGEDMEGSEKLGVDKTLRWQEQPLSVSKKQVMLVDPNDEQPCEARWQLNGPGDEYIRVSTRSGYEIPIPSQAKVTYEYLQPENYIEVEGKDTPADAVLERTYMPKVASFEQEIMEEMGIKEERTPKPTFWY", "not soluble"),
    ("MKVIAVNGGPRKQWNTATLLHKALEGAQSAGAETDLFHLYDLNYKGCISCFGCKRKNSSRIGHCVLKDELTPLLEEVLKCDALLLGSPIYFGNVTGAMRSFLERLFFSLLSYNEGQRTVFPRKVASGFIYTMNVPEDFLPQLGYEAVFKANARSLELLNGPSEYLLATDTYQFDNYSNYEASRFNEQHKAQVRQERFPQDCRQAFDLGAR", "not soluble"),
    ("MGSDKIHHHHHHKTLAANAVFATAFVKRDGSFGAAILSEAGKVLHAIDLPDRGHDVTFDPISKRSVVFARQPGTFAVVFDHSGRDAPQTVASISGRHFFGHGVFSPDGALLYATENDFDNAAGVIGIYDARAKFSRVGEFPTYGMGPHELLLLGDGRTMAVANGGIETHPDYGRAELNIATMKPSYVLIDRVTGDLIEKHELPASLHQLSIRHMDTDPSGTVWFGCQYRGPGTDRPLLVGRAVRGKELQLLDMPQDVLSGFRNYIGSVAANLSAGSVAVSSPEGNSLVVIDAASGRVVSSSALVEVCGLAPDGSGFIATTGAGEIIEGSGATRSEPDYVWDNHMLRIERA", "not soluble"),
    ("MENELQDFPEPNYNVHAFYYVWYGSPQFDGKYVHWDHPLLPHWDPKVASSYSTGRHQPPEDIGANFYPALGPYSSRDPAVLEEHMRQLRMAAVGVLAVSWYPRSMKDDNGEEIDSLLPLILDAADKYQLKVLYNLYVFKNVICINKYV", "not soluble"),
]
